Each entry below carries its recorded growth inhibition by drug alone.
Test system: U-2932
Experiment: growth inhibition by drug alone (1 - RLU/untreated control) (fraction); higher = stronger inhibition
Conditions: 10 nM; time (day): 3; 177Lu-lilotomab satetraxetan 0 ug/ml
result_type: growth inhibition by drug alone

> print(dat)
                                   molecule  recorded.number
1  C[C@]12CC[C@@H]3c4ccc(O)cc4CC[C@H]3[C@@H]1CCC2=O [Estrone]           0.0961
2  Cc1cc(Nc2cc(N3CCN(C)CC3)nc(/C=C/c3ccccc3)n2)n[nH]1          -0.0691
3  CCOc1ccc(Cc2cc([C@@H]3O[C@H](CO)[C@@H](O)[C@H](O)[C@H]3O)ccc2Cl)cc1 [Dapagliflozin]            0.142
4  N#CC(c1ccnc(NCCc2cccnc2)n1)c1nc2ccccc2s1 (stereo not drawn) [JNK Inhibitor V]          -0.0956
5  C[C@]12CC[C@H](O)CC1=CC[C@@H]1[C@@H]2CC[C@]2(C)C(c3cccnc3)=CC[C@@H]12 [Abiraterone (CB-7598)]            0.158
6  CS(=O)(=O)CCNCc1ccc(-c2ccc3ncnc(Nc4ccc(OCc5cccc(F)c5)c(Cl)c4)c3c2)o1 [Lapatinib Ditosylate (Tykerb)]           0.0817
7  COc1cc2ncnc(-n3nc(-c4ccccn4)nc3N)c2cc1OC            0.133
8  Cc1cc(O)c2c(c1)C(=O)c1cccc(O)c1C2=O [Chrysophanic acid (Chrysophanol)]          -0.0586

Attribution: the supplement of paper PMC6897291
